assay: Example 5: degradation over time of black currant anthocyanosides at 37° C., pH 7.0, with/without GSH (HPLC); type: physicochemical; conditions: Blank sample, pH 7.0, 37° C., 3:00 h
experimental readout: Peak Area

Please review the following examples before continuing.
Notebook: OC[C@H]1O[C@@H](Oc2cc3c(O)cc(O)cc3[o+]c2-c2ccc(O)c(O)c2)[C@H](O)[C@@H](O)[C@@H]1O [Cn-3O-Glc, Cyanidin 3-o-glucoside] , Peak Area read as 213.7

Notebook: C[C@@H]1O[C@@H](OC[C@H]2O[C@@H](Oc3cc4c(O)cc(O)cc4[o+]c3-c3cc(O)c(O)c(O)c3)[C@H](O)[C@@H](O)[C@@H]2O)[C@H](O)[C@H](O)[C@H]1O [Dp-3-O-Rut, Delphinidin-3-O-rutinoside] , Peak Area read as 1235.4

a = C[C@@H]1O[C@@H](OC[C@H]2O[C@@H](Oc3cc4c(O)cc(O)cc4[o+]c3-c3ccc(O)c(O)c3)[C@H](O)[C@@H](O)[C@@H]2O)[C@H](O)[C@H](O)[C@H]1O [Cn-3-O-Rut, Cyanidin-3-O-rutinoside]
b = OC[C@H]1O[C@@H](Oc2cc3c(O)cc(O)cc3[o+]c2-c2cc(O)c(O)c(O)c2)[C@H](O)[C@@H](O)[C@@H]1O [Dp-3O-Glc, Delphinidin 3-o-glucoside]
Sorting by Peak Area in descending order, would a or b appear first? To answer, give the label that identifies your chosen option.
a

* * *

experiment: Example 5: degradation over time of black currant anthocyanosides at 37° C., pH 7.0, with/without GSH (HPLC); format: physicochemical; settings: GSH protected sample (20 mg), pH 7.0, 37° C., 3:45 h
experimental readout: Peak Area

Notebook: C[C@@H]1O[C@@H](OC[C@H]2O[C@@H](Oc3cc4c(O)cc(O)cc4[o+]c3-c3ccc(O)c(O)c3)[C@H](O)[C@@H](O)[C@@H]2O)[C@H](O)[C@H](O)[C@H]1O [Cn-3-O-Rut, Cyanidin-3-O-rutinoside] , Peak Area read as 2274.2

I = OC[C@H]1O[C@@H](Oc2cc3c(O)cc(O)cc3[o+]c2-c2cc(O)c(O)c(O)c2)[C@H](O)[C@@H](O)[C@@H]1O [Dp-3O-Glc, Delphinidin 3-o-glucoside]
II = C[C@@H]1O[C@@H](OC[C@H]2O[C@@H](Oc3cc4c(O)cc(O)cc4[o+]c3-c3cc(O)c(O)c(O)c3)[C@H](O)[C@@H](O)[C@@H]2O)[C@H](O)[C@H](O)[C@H]1O [Dp-3-O-Rut, Delphinidin-3-O-rutinoside]
III = OC[C@H]1O[C@@H](Oc2cc3c(O)cc(O)cc3[o+]c2-c2ccc(O)c(O)c2)[C@H](O)[C@@H](O)[C@@H]1O [Cn-3O-Glc, Cyanidin 3-o-glucoside]
Please order the records by their reported Peak Area, lowest number first. Would you mind listing the labels in the order asked for?
III, I, II

* * *

assay: Example 1: stability of bilberry extract anthocyanosides, 4 hours at 37° C., pH 7.0, with/without DHLA or GSH (HPLC); assay type: physicochemical; conditions: unprotected, pH 7.0, 37° C., 4 hours
experimental readout: Peak Area, Blank (4 hours)

Notebook: COc1cc(-c2[o+]c3cc(O)cc(O)c3cc2O[C@@H]2O[C@H](CO)[C@@H](O)[C@H](O)[C@H]2O)cc(OC)c1O [Mv-3O-Glc, Malvidin 3-o-glucoside] , Peak Area, Blank (4 hours) read as 164.7

a = COc1cc(-c2[o+]c3cc(O)cc(O)c3cc2O[C@@H]2OC[C@H](O)[C@H](O)[C@H]2O)cc(O)c1O.[Cl-] [Pt-3O-Ara, Petunidin 3-o-arabinoside]
b = Oc1cc(O)c2cc(O[C@H]3OC[C@H](O)[C@H](O)[C@H]3O)c(-c3cc(O)c(O)c(O)c3)[o+]c2c1 [Dp-3O-Ara, Delphinidin 3-o-arabinoside]
Record comparison, field Peak Area, Blank (4 hours): mark the lower of a and b . To answer, give the label that identifies your chosen option.
a
(a: 22.8, b: 39.1)

* * *

experiment: Example 1: stability of bilberry extract anthocyanosides, 4 hours at 37° C., pH 7.0, with/without DHLA or GSH (HPLC); assay type: physicochemical; conditions: 20 mg reduced L-glutathione, pH 7.0, 37° C., 4 hours
List of % left, GSH (4 hours) values.
Expressed in %, but write only the number.

Notebook: COc1cc(-c2[o+]c3cc(O)cc(O)c3cc2O[C@@H]2O[C@H](CO)[C@@H](O)[C@H](O)[C@H]2O)cc(OC)c1O [Mv-3O-Glc, Malvidin 3-o-glucoside] , % left, GSH (4 hours) read as 73.7

More entries:
Notebook: OC[C@H]1O[C@@H](Oc2cc3c(O)cc(O)cc3[o+]c2-c2ccc(O)c(O)c2)[C@H](O)[C@@H](O)[C@H]1O [Cn-3O-Gal, Cyanidin-3-O-galactoside] , % left, GSH (4 hours) read as 77.3

Notebook: COc1cc(-c2[o+]c3cc(O)cc(O)c3cc2O[C@@H]2O[C@H](CO)[C@H](O)[C@H](O)[C@H]2O)cc(OC)c1O [Mv-3O-Gal, Malvidin 3-o-galactoside] , % left, GSH (4 hours) read as 74.4

* * *

experiment: Example 5: degradation over time of black currant anthocyanosides at 37° C., pH 7.0, with/without GSH (HPLC); format: physicochemical; settings: GSH protected sample (20 mg), pH 7.0, 37° C., 1:45 h
experimental readout: Peak Area

Notebook: C[C@@H]1O[C@@H](OC[C@H]2O[C@@H](Oc3cc4c(O)cc(O)cc4[o+]c3-c3ccc(O)c(O)c3)[C@H](O)[C@@H](O)[C@@H]2O)[C@H](O)[C@H](O)[C@H]1O [Cn-3-O-Rut, Cyanidin-3-O-rutinoside] , Peak Area read as 2688.8

Notebook: C[C@@H]1O[C@@H](OC[C@H]2O[C@@H](Oc3cc4c(O)cc(O)cc4[o+]c3-c3cc(O)c(O)c(O)c3)[C@H](O)[C@@H](O)[C@@H]2O)[C@H](O)[C@H](O)[C@H]1O [Dp-3-O-Rut, Delphinidin-3-O-rutinoside] , Peak Area read as 3749.9

A = OC[C@H]1O[C@@H](Oc2cc3c(O)cc(O)cc3[o+]c2-c2cc(O)c(O)c(O)c2)[C@H](O)[C@@H](O)[C@@H]1O [Dp-3O-Glc, Delphinidin 3-o-glucoside]
B = OC[C@H]1O[C@@H](Oc2cc3c(O)cc(O)cc3[o+]c2-c2ccc(O)c(O)c2)[C@H](O)[C@@H](O)[C@@H]1O [Cn-3O-Glc, Cyanidin 3-o-glucoside]
Sorting by Peak Area in descending order, would A or B appear first? To answer, give the label that identifies your chosen option.
A
(A: 1051.8, B: 376.4)

* * *

assay: Example 5: degradation over time of black currant anthocyanosides at 37° C., pH 7.0, with/without GSH (HPLC); type: physicochemical; conditions: GSH protected sample (20 mg), pH 7.0, 37° C., 0:00 h
experimental readout: Peak Area

Notebook: OC[C@H]1O[C@@H](Oc2cc3c(O)cc(O)cc3[o+]c2-c2cc(O)c(O)c(O)c2)[C@H](O)[C@@H](O)[C@@H]1O [Dp-3O-Glc, Delphinidin 3-o-glucoside] , Peak Area read as 1464.0

P = C[C@@H]1O[C@@H](OC[C@H]2O[C@@H](Oc3cc4c(O)cc(O)cc4[o+]c3-c3ccc(O)c(O)c3)[C@H](O)[C@@H](O)[C@@H]2O)[C@H](O)[C@H](O)[C@H]1O [Cn-3-O-Rut, Cyanidin-3-O-rutinoside]
Q = OC[C@H]1O[C@@H](Oc2cc3c(O)cc(O)cc3[o+]c2-c2ccc(O)c(O)c2)[C@H](O)[C@@H](O)[C@@H]1O [Cn-3O-Glc, Cyanidin 3-o-glucoside]
Sorting by Peak Area in descending order, would P or Q appear first? To answer, give the label that identifies your chosen option.
P
(P: 3473.6, Q: 480.6)

* * *

Test: Example 5: degradation over time of black currant anthocyanosides at 37° C., pH 7.0, with/without GSH (HPLC)
Format: physicochemical
Conditions: Blank sample, pH 7.0, 37° C., 3:30 h
Method: Sample a) 60 mg black currant extract [35% anthocyanosides] (0.037 mmol anthocyanosides expressed as cyanidin-3-O-rutinoside) were added to a 100 ml flask, filled to volume with sodium phosphate buffer (5% [w/w], pH=7.0) and stirred until dissolution was complete. A 1 ml sample was taken immediately, acidified with formic acid to pH=1.0 and analyzed by HPLC for the content of anthocyanosides. The remaining solution was kept at 37° C. […] The samples were analyzed for selected anthocyanosides by HPLC. […]
experimental readout: Peak Area

Please review the following examples before continuing.
Notebook: OC[C@H]1O[C@@H](Oc2cc3c(O)cc(O)cc3[o+]c2-c2cc(O)c(O)c(O)c2)[C@H](O)[C@@H](O)[C@@H]1O [Dp-3O-Glc, Delphinidin 3-o-glucoside] , Peak Area read as 208.8

Notebook: C[C@@H]1O[C@@H](OC[C@H]2O[C@@H](Oc3cc4c(O)cc(O)cc4[o+]c3-c3cc(O)c(O)c(O)c3)[C@H](O)[C@@H](O)[C@@H]2O)[C@H](O)[C@H](O)[C@H]1O [Dp-3-O-Rut, Delphinidin-3-O-rutinoside] , Peak Area read as 907.2

P = C[C@@H]1O[C@@H](OC[C@H]2O[C@@H](Oc3cc4c(O)cc(O)cc4[o+]c3-c3ccc(O)c(O)c3)[C@H](O)[C@@H](O)[C@@H]2O)[C@H](O)[C@H](O)[C@H]1O [Cn-3-O-Rut, Cyanidin-3-O-rutinoside]
Q = OC[C@H]1O[C@@H](Oc2cc3c(O)cc(O)cc3[o+]c2-c2ccc(O)c(O)c2)[C@H](O)[C@@H](O)[C@@H]1O [Cn-3O-Glc, Cyanidin 3-o-glucoside]
Sorting by Peak Area in descending order, would P or Q appear first? To answer, give the label that identifies your chosen option.
P
